Provenance of the data: patent US20070287693A1

experiment: Plasma protein binding by equilibrium dialysis; format: in vitro ADME; settings: rat plasma, 37° C., pH 7.4, read-out: % free in plasma
assayEndpoint: fraction unbound at 18 h, 20 μM
Reply with just the number.

IN: I am curious: what fraction unbound at 18 h, 20 μM value has been reported for CC[C@@H](CO)Oc1cc(Oc2ccc(C(=O)N3CCC3)cc2)cc(C(=O)Nc2ccn(C)n2)c1 ?
OUT: 0.02
